# tested target: Glutathione S-transferase Mu 1 (Mus musculus)
# protocol: GST activity in the cytosols of the forestomach of ICR/Ha mice was determined by using 1-Chloro-2,4-dinitrobenzene as the substrate
# Assay type: functional, tissue-based
# measurement conditions: Stomach
Entries and their Specific activity (uM min-1 (mg of protein)-1) values follow.

Please review the following examples before continuing.
molecule: C[C@@]12CCc3occc3C1CC[C@@]13CC(CCC12)C(O)(CO)C3 (some centres undefined)
value observed: 0.91

molecule: C[C@@]12CCc3occc3C1CC[C@]13CC(O)C(CCC12)C3 (some centres undefined)
value observed: 0.91

molecule: CC1(O)C[C@@]23CCC4c5ccoc5C=C[C@@]4(C)C2CCC1C3 (some centres undefined)
value observed: 0.92

// next item, Specific activity (uM min-1 (mg of protein)-1) requested
[ask] Specify reported Specific activity (uM min-1 (mg of protein)-1) for the molecule shown: C[C@@]12CCc3occc3C1CC[C@]13CC(=O)C(CCC12)C3 (some centres undefined)
[reply] 0.88

----------
Entries and their Ratio values follow.
# tested target: Glutathione S-transferase Mu 1 (Mus musculus) (UniProt P10649)
# protocol: Ratio is the compound /control(Specific activity in small bowel mucosa(GST))
# Format: functional
# respond with the number and nothing more

[ask] Specify reported Ratio for the compound shown: C[C@@]12C=Cc3occc3C1CC[C@]13CC(O)C(CCC12)C3 (stereo partly specified)
[reply] 5.7

[ask] Specify reported Ratio for the compound shown: CC(=O)OC1C[C@@]23CCC4c5ccoc5CC[C@@]4(C)C2CCC1C3 (stereo partly specified)
[reply] 5.1

[ask] Specify reported Ratio for the compound shown: C[C@@]12CCc3occc3C1CC[C@]13CCC(CCC12)C3 (stereo partly specified)
[reply] 2.6

[ask] Specify reported Ratio for the compound shown: C[C@@]12CCC3=C(CCO3)C1CC[C@@]13CC(CCC12)[C@@](O)(CO)C3 (stereo partly specified)
[reply] 1.1

----------
# tested target: UniProtKB P10649
# Sequence (whole entry): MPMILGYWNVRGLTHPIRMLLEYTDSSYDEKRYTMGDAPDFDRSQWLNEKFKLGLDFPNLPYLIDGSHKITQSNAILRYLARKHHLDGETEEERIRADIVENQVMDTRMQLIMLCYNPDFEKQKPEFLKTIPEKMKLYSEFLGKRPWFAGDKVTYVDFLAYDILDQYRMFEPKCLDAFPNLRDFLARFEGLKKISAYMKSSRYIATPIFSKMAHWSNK
# protocol: GST activity in the cytosols of liver of ICR/Ha mice, using 1-Chloro-2,4-dinitrobenzene as substrate
# Type: functional, tissue-based
endpoint: Specific activity (uM min-1 (mg of protein)-1)
# respond with the number and nothing more

molecule: C[C@@]12C=Cc3occc3C1CC[C@@]13CC(CCC12)C(O)(CO)C3 (some centres undefined)
value observed: 4.3

[ask] Specify reported Specific activity (uM min-1 (mg of protein)-1) for the molecule shown: CC(=O)OC[C@@]1(O)C[C@@]23CCC4C5=C(CC[C@@]4(C)C2CCC1C3)OCC5 (some centres undefined)
[reply] 1.27

[ask] Specify reported Specific activity (uM min-1 (mg of protein)-1) for the molecule shown: CC1(O)C[C@@]23CCC4c5ccoc5CC[C@@]4(C)C2CCC1C3 (some centres undefined)
[reply] 2.26

[ask] Specify reported Specific activity (uM min-1 (mg of protein)-1) for the molecule shown: C[C@@]12CCc3occc3C1CC[C@]13CCC(CCC12)C3 (some centres undefined)
[reply] 2.62

----------
# tested target: UniProtKB P10649
# protocol: Ratio is the compound /control(Specific activity in small bowel mucosa(GST))
# Assay type: functional
Heads up, the class ranges for Ratio are group 1 (below 4), group 2 (4 to below 6), group 3 (6 or more)

Check out these entries, answers already filled in.
compound: CC(=O)OC[C@@]1(O)C[C@@]23CC[C@@H]4c5ccoc5CC[C@@]4(C)[C@@H]2CC[C@@H]1C3 [CAFESTOL ACETATE]
label class: group 3
//
compound: C[C@@]12CCc3occc3C1CC[C@]13CC(=O)C(CCC12)C3 (some centres not stated)
label class: group 2
//
compound: C[C@@]12CCc3occc3C1CC[C@]13CC(O)C(CCC12)C3 (some centres not stated)
label class: group 2
//
compound: CC(=O)OC[C@@]1(O)C[C@@]23CCC4[C@H]5CCO[C@H]5CC[C@@]4(C)C2CCC1C3 (some centres not stated)
label class: group 1
//
compound: CC1(O)C[C@@]23CCC4c5ccoc5C=C[C@@]4(C)C2CCC1C3 (some centres not stated)
label class: group 2
//
compound: C[C@@]12CCc3occc3C1CC[C@@]13CC(CCC12)C(O)(CO)C3 (some centres not stated)
label class: group 1
//
compound: CC1(O)C[C@@]23CCC4c5ccoc5CC[C@@]4(C)C2CCC1C3 (some centres not stated)
label class: group 1
//
compound: C[C@@]12C=Cc3occc3C1CC[C@@]13CC(CCC12)C(O)(CO)C3 (some centres not stated)
label class: group 3

[ask] The entry to classify is CC(=O)OC[C@@]1(O)C[C@@]23CCC4C5=C(CC[C@@]4(C)C2CCC1C3)OCC5 (some centres not stated) ; which class holds it?
[reply] group 1

[ask] The entry to classify is CC(=O)OC1C[C@@]23CCC4c5ccoc5C=C[C@@]4(C)C2CCC1C3 (some centres not stated) ; which class holds it?
[reply] group 3
